B1: CPEB3 Ribozyme (parent)
chain: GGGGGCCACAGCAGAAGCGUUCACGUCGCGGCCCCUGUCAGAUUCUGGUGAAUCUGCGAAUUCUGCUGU

variants of: B1; assay: self-cleavage, relative activity (ratio to wild type); higher = more cleavage; co-transcriptional
measure_name: self-cleavage
Provide a numeric answer; units are not to be included.

1) GGGGGCCACAGCAGAAGCGUUCACGUCGCGGCCUCUGUCAGAUUCUGGUGAAUCUGCGAAUUCUGUUGU : 0.977
2) GGGGGACACAGCAGAAGCGUGCACGUCGCGGCCCCUGUCAGAUUCUGGUGAAUCUGCGAAUUCUGCUGU : 0.179

Sample GGGGGCCACAGCAGAAGCGUUCACGUCGGGGCCCCUGUCAGAUUCUGGUGAGUCUGCGAAUUCUGCUGU ; self-cleavage observed: 0.53

Sample GGGGGCCACAGCAGAAGCGUUCACGUCGCGGCCCCUGUCAGAUUUUGGUGAAUCUGCGAACUCUGCUGU ; self-cleavage observed: 0.887

Sample GGGGGCCGCAGCAGAAGCGUUCACGUCGCGGCCCCUGUCAGAUUCUGGUGAAUCUACGAAUUCUGCUGU ; self-cleavage observed: 0.562

Sample GCGGGCCACAGCAGAAGCGUUCACGUCGCGGCCCCUGUCAGAUUCUGGUGAAUCUGCGAAUUCUCCUGU ; self-cleavage observed: 0.0537

Sample GGGAGCCACAGCAGAAGCGUUCACGUCGUGGCCCCUGUCAGAUUCUGGUGAAUCUGCGAAUUCUGCUGU ; self-cleavage observed: 0.216

Sample GGCGGCGACAGCAGAAGCGUUCACGUCGCGGCCCCUGUCAGAUUCUGGUGAAUCUGCGAAUUCUGCUGU ; self-cleavage observed: 0.0644

Sample GGUGGCCACAGCAGAAGCGUUCACGUCGCGGCCCCUGUCAAAUUCUGGUGAAUCUGCGAAUUCUGCUGU ; self-cleavage observed: 0.0442

Sample GGGGGCCACAGGAGAGGCGUUCACGUCGCGGCCCCUGUCAGAUUCUGGUGAAUCUGCGAAUUCUGCUGU ; self-cleavage observed: 0.578

Sample GGGGGCCACAGCAGAGGCGUUCACGUCGCGGCCGCUGUCAGAUUCUGGUGAAUCUGCGAAUUCUGCUGU ; self-cleavage observed: 0.576

Sample GGGGGCCACAGCAGAAGCGUUCACGUCGCGGCCACUGUCAGAUUCUGGUGAAUCUGUGAAUUCUGCUGU ; self-cleavage observed: 0.285

Sample GGGGGCCACAGCAGAAGCGUUCACAUCGCGGCCCCUGCCAGAUUCUGGUGAAUCUGCGAAUUCUGCUGU ; self-cleavage observed: 0.123

Sample GCGGACCACAGCAGAAGCGUUCACGUCGCGGCCCCUGUCAGAUUCUGGUGAAUCUGCGAAUUCUGCUGU ; self-cleavage observed: 0.0455

Sample GGGGGCCACAGCAGAAGCGUUCACAUCGCGGCCCCUGUCAGAUUCUGGUGACUCUGCGAAUUCUGCUGU ; self-cleavage observed: 0.253

Sample GGGGGCCACAGCAGAAGCGUUCACGUCGCGGCCCCUGUCAGAUUCUGGUGGAUCUGCGAAUUCGGCUGU ; self-cleavage observed: 0.917

Sample GGGGGCCACAGCAGAAGCGAUCACGUCUCGGCCCCUGUCAGAUUCUGGUGAAUCUGCGAAUUCUGCUGU ; self-cleavage observed: 0.182

Sample GGGGGCCACAGCAGAAGCGUUCACGUCGCGGCACCUGUCAGAUUCUGGUGAAUCUGCGAAUUCCGCUGU ; self-cleavage observed: 0.798

Sample GGGGGCCACAGCAGAAGCGUUCACGUCGCGGCCCCUGUCAGAUUCUGGUGAAUCUGCAAAUUUUGCUGU ; self-cleavage observed: 0.957

Sample GGGGGCCACAGCAGAAGCGUUCACGUCGCGGCCCCUGUCAGAUUCUGGUGAAUCUGCGAAUGCGGCUGU ; self-cleavage observed: 0.533

Sample GGGGGCCACAGCAGAAGCGUUCACGUCGCGGCCCCGGUCAGAUUCUGGCGAAUCUGCGAAUUCUGCUGU ; self-cleavage observed: 0.146

Sample GGGGGCCACAGCACAAGCGCUCACGUCGCGGCCCCUGUCAGAUUCUGGUGAAUCUGCGAAUUCUGCUGU ; self-cleavage observed: 0.116

Sample GGCGGCCACAGCAGAAGCGUUCACGUCGCGGCACCUGUCAGAUUCUGGUGAAUCUGCGAAUUCUGCUGU ; self-cleavage observed: 0.0485

Data origin: the RNAGym collection of RNA variant scans (doi:10.7554/elife.80360)
